Catalogue of CC50 at 24 h readings, one per entry.
assay: Cytotoxicity assay (MTT); details: mouse, RAW 264.7 cells, CC50 (median cytotoxic concentration), RAW 264.7 cells, MTT, 24 h, n = 3; >200: CC50 could not be obtained, cell survival rate >98% at 200–6.25 μM
property measured: CC50 at 24 h

COc1ccc2c(c1)c(CC(=O)O)c(C)n2C(=O)c1ccc(Cl)cc1 [IND, indomethacin, reference compound] :: 633 µM
O=c1c(-c2ccc(O)cc2)coc2cc(O)ccc12 :: > 200 µM
O=C1C[C@@H](c2ccc(O)cc2)Oc2cc(O)ccc21 :: > 200 µM
CC(=N)NCCCC[C@H](N)C(=O)O [L-NIL, L-N^6-(1-iminoethyl)-lysine, reference compound] :: > 200 µM
Oc1ccc2c(c1)OC[C@H](c1cc3c(cc1O)OCO3)[C@H]2O :: > 200 µM
O=C(/C=C/c1ccc(O)cc1)c1ccc(O)cc1O :: 133 µM
COc1ccc([C@@H]2COc3cc(O)ccc3C2)c(O[C@@H]2O[C@H](CO)[C@@H](O)[C@H](O)[C@H]2O)c1 [Compound 15, (3R)-vestitol-2′-O-β-D-glucopyranoside] :: > 200 µM
